system: UO-31 renal; assay: NCI tumour cell line growth inhibition, 48 h
Each record here notes measured TGI.

For orientation, consider the following solved cases.
Compound	TGI
C=CCN(C(=O)CNC(=O)C(F)(F)F)c1cc(OCc2ccccc2)c2c(c1)c(C)cn2S(=O)(=O)c1ccccc1	15.6 µM
CC(C)=CC1CC(=[N+]=[N-])C(=O)C1(C)C (centres undefined)	> 100 µM
O=C(/C=C/C=C/c1ccccc1)c1ccccc1	38.2 µM
COc1cccc(C2CC23C(=O)NC(=O)NC3=O)c1 (centres undefined)	> 100 µM
Cc1ncc([N+](=O)[O-])n1CCNCCCCn1ccnc1[N+](=O)[O-]	> 100 µM

stdin: What value of TGI on UO-31 renal does CC1C=CN(N(C)C)C2=C1C(=O)c1cnccc1C2=O (centres undefined) have?
stdout: 0.39 µM

stdin: Then what about the compound `O=C1c2cccc3cccc(c23)C(=O)N1CCCCCN1CCN(CCCCCOc2ccc(-c3nc4ccc(N5CCOCC5)cc4[nH]3)cc2)CC1` ?
stdout: 34.7 µM

stdin: Then what about the compound Cc1ccc2c(C3C(C#N)=C(N)Oc4cc5ccccc5cc43)cc(=O)oc2c1 (centres undefined) ?
stdout: > 100 µM

stdin: Then what about the compound CSc1nc(NC2OC(COC(C)=O)C(OC(C)=O)C(OC(C)=O)C2OC(C)=O)c(N=CC=Nc2c(NC3OC(COC(C)=O)C(OC(C)=O)C(OC(C)=O)C3OC(C)=O)nc(SC)n(C)c2=O)c(=O)n1C (centres undefined) ?
stdout: > 100 µM
